Source of measurements: patent US11000033B2

{"compound": "CC(CC1CC(O)=C(c2c(C)cc(C)cc2C)C1=O)=NOC(C)C (centres unmarked)", "melting point": "93 to 95 °C"}
{"compound": "CC(CC1CC(O)=C(c2c(C)cc(C)cc2C)C1=O)=NOCC(F)(F)F (centres unmarked)", "melting point": "172 to 174 °C"}
{"compound": "CON=C(C)CC1CC(O)=C(c2c(C)cc(C#N)cc2C)C1=O (centres unmarked)", "melting point": "181 to 184 °C"}
{"compound": "CON=C(C)CC1CC(O)=C(c2c(C)cc(Br)cc2OC)C1=O (centres unmarked)", "melting point": "150 to 153 °C"}
{"compound": "CON=C(C)CC1CC(O)=C(c2c(F)cc(-c3ccccc3)cc2OC)C1=O (centres unmarked)", "melting point": "175 to 177 °C"}
